test: Cytotoxicity against mouse L12-G10 cells at 50 uM by MTT assay; format: cell-based; conditions: l12-g10, 50 µM
Labelling field: enter Yes if recorded Activity is less than 80%. Enter No if it equals or exceeds that cut-off.

Compound: CNC1(c2ccccc2Cl)CCCCC1=O (configuration not stated)
Category: No
//
Compound: c1ccc2c(c1)c1ccncc1n2CCCCCCCCCCCCn1c2ccccc2c2ccncc21
Category: No
//
Compound: [Br-].[Br-].c1ccc2c(c1)[nH]c1c[n+](CCCCCCCCCCCC[n+]3ccc4c(c3)[nH]c3ccccc34)ccc12
Category: Yes
//
Compound: [Br-].[Br-].c1ccc2c(c1)[nH]c1c[n+](CCOCCOCCOCC[n+]3ccc4c(c3)[nH]c3ccccc34)ccc12
Category: No
//
Compound: [Br-].[Br-].c1ccc2c(c1)[nH]c1c[n+](CCCCCC[n+]3ccc4c(c3)[nH]c3ccccc34)ccc12
Category: Yes
//
Compound: Oc1ccc2[nH]c3c[n+](CCCCC[n+]4ccc5c(c4)[nH]c4ccc(O)cc45)ccc3c2c1.[Br-].[Br-]
Category: Yes
//
Compound: [Br-].[Br-].c1ccc2c(c1)[nH]c1c[n+](CCCCC[n+]3ccc4c(c3)[nH]c3ccccc34)ccc12
Category: No
//
Compound: [Br-].[Br-].c1ccc2c(c1)[nH]c1c[n+](CCC[n+]3ccc4c(c3)[nH]c3ccccc34)ccc12
Category: No
//
Compound: COc1ccc2[nH]c3c[n+](CCCCC[n+]4ccc5c(c4)[nH]c4ccc(OC)cc45)ccc3c2c1.[Br-].[Br-]
Category: No
//
Compound: [Br-].[Br-].c1ccc2c(c1)[nH]c1c[n+](CCCCCCCCCC[n+]3ccc4c(c3)[nH]c3ccccc34)ccc12
Category: Yes
//
Compound: [Br-].[Br-].c1ccc2c(c1)[nH]c1c[n+](CCCCCCCCC[n+]3ccc4c(c3)[nH]c3ccccc34)ccc12
Category: Yes
//
Compound: [Br-].[Br-].c1ccc2c(c1)[nH]c1c[n+](CC[n+]3ccc4c(c3)[nH]c3ccccc34)ccc12
Category: Yes
//
Compound: c1ccc2c(c1)c1ccncc1n2CCCCCCCCCn1c2ccccc2c2ccncc21
Category: Yes
//
Compound: [Br-].[Br-].c1ccc2c(c1)[nH]c1c[n+](Cc3ccc(C[n+]4ccc5c(c4)[nH]c4ccccc45)cc3)ccc12
Category: No
//
Compound: [Br-].[Br-].c1ccc2c(c1)[nH]c1c[n+](CCCCCCCCCCC[n+]3ccc4c(c3)[nH]c3ccccc34)ccc12
Category: Yes
//
Compound: C[n+]1ccc2c3ccccc3n(CCCCCCCCCCCCn3c4ccccc4c4cc[n+](C)cc43)c2c1.[I-].[I-]
Category: Yes
//
Compound: CC12CC3CC(C)(C1)CC(N)(C3)C2 [MEMANTINE]
Category: No
//
Compound: C[C@]12N[C@H](Cc3ccccc31)c1ccccc12
Category: No
//
Compound: [Br-].[Br-].c1ccc2c(c1)[nH]c1c[n+](CCCCCCCC[n+]3ccc4c(c3)[nH]c3ccccc34)ccc12
Category: Yes
